Assay: The drug is tested on Odoribacter splanchnicus strain: fecal isolate for biotransformation. The drug concentrations were measured before and after a 12-h incubation by liquid-chromatography-coupled mass spectrometry (LC–MS)
Settings: 2 µM
readout label: Bacterial Biotransformation

Look over these answered cases.
> print(dat)
                                   molecule            measured.value
1  CC(C)(C#N)c1cc(Cn2cncn2)cc(C(C)(C)C#N)c1 [ANASTROZOLE]      Compound metabolized
2  COc1cc2nc(N(C)CCCNC(=O)C3CCCO3)nc(N)c2cc1OC (stereo not given) [ALFUZOSIN]  Compound NOT metabolized
3  CNCCC(Oc1ccc(C(F)(F)F)cc1)c1ccccc1 (stereo not given) [FLUOXETINE]      Compound metabolized
4  CN1CCc2cccc3c2[C@H]1Cc1ccc(O)c(O)c1-3 [APOMORPHINE]  Compound NOT metabolized

Please find the next molecule below.
Given the molecule COC(=O)Nc1nc2ccc(C(=O)c3ccccc3)cc2[nH]1 [MEBENDAZOLE] , what is its reported Bacterial Biotransformation?
Compound metabolized

Hello, the source for this data is ChEMBL document CHEMBL5303573, in case you need it.
